- study.system: HIV-1 pseudovirus 6952.v1.c20 (HIV-1)
- assay.comment: cell-based or functional assay
Examples of binders with documented IC80 (neutralization in TZM.bl cells) follow.

binder: MS-83 (antibody, V domains shown) VH: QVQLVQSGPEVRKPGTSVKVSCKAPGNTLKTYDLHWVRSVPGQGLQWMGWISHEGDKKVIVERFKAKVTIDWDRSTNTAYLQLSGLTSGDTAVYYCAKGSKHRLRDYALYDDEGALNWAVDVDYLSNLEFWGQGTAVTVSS VL: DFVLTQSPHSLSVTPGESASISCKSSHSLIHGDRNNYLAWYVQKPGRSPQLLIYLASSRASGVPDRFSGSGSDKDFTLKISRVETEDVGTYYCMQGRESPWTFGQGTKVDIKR
IC80 (neutralization in TZM.bl cells): 3.09 µg/mL
--
binder: MS-70 (antibody, V domains shown) VH: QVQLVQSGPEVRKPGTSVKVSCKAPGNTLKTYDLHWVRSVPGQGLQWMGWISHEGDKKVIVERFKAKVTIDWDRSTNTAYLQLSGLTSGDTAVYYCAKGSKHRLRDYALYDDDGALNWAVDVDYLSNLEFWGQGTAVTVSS VL: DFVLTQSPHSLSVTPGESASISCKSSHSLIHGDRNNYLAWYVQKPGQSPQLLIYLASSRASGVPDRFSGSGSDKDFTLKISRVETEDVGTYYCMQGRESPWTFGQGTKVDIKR
IC80 (neutralization in TZM.bl cells): 4.84 µg/mL
--
binder: MS-85 (antibody, V domains shown) VH: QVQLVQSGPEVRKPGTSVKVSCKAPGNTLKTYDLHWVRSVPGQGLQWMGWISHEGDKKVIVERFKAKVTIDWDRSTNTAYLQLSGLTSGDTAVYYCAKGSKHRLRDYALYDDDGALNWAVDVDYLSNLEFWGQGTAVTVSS VL: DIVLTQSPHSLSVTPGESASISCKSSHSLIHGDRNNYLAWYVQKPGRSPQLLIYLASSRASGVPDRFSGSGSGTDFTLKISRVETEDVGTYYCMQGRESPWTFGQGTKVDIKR
IC80 (neutralization in TZM.bl cells): > 25 µg/mL
--
binder: MS-87 (antibody, V domains shown) VH: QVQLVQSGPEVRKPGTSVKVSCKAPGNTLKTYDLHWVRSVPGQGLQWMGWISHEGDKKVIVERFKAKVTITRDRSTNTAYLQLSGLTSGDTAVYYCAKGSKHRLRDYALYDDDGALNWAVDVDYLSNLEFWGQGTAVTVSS VL: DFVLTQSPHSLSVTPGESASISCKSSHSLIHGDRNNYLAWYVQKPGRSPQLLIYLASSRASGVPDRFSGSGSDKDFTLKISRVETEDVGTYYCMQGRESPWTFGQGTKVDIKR
IC80 (neutralization in TZM.bl cells): > 25 µg/mL
--
binder: MS-76 (antibody, V domains shown) VH: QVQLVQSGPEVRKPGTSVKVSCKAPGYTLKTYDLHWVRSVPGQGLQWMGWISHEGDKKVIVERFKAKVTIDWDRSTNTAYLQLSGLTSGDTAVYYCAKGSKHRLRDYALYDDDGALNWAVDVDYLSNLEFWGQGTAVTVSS VL: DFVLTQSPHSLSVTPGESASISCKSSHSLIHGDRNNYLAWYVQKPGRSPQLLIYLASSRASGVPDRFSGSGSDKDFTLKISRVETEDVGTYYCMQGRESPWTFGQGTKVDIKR
IC80 (neutralization in TZM.bl cells): > 25 µg/mL
--
binder: MS-82 (antibody, V domains shown) VH: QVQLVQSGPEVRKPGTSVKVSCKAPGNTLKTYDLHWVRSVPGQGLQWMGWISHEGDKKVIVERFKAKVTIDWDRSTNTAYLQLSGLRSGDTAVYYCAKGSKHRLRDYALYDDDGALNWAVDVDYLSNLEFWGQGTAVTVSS VL: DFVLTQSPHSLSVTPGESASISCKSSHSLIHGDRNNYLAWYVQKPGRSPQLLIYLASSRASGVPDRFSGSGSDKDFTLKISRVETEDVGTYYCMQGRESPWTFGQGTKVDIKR
IC80 (neutralization in TZM.bl cells): 23 µg/mL
--
binder: MS-78 (antibody, V domains shown) VH: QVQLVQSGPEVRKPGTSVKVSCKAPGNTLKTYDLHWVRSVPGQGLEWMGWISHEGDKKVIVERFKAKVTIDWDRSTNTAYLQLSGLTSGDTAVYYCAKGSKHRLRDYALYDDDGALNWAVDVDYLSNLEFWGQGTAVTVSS VL: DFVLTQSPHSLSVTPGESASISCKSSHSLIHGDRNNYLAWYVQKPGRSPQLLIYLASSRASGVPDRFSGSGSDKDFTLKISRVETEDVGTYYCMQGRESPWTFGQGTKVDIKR
IC80 (neutralization in TZM.bl cells): > 25 µg/mL
--
binder: MS-75 (antibody, V domains shown) VH: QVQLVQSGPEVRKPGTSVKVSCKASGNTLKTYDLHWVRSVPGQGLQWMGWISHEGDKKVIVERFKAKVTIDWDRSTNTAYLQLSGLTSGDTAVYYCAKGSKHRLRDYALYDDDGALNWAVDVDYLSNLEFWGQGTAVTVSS VL: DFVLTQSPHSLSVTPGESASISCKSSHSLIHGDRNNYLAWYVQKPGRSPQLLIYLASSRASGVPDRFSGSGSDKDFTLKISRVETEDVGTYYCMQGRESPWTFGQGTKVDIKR
IC80 (neutralization in TZM.bl cells): > 25 µg/mL
--
binder: MS-91 (antibody, V domains shown) VH: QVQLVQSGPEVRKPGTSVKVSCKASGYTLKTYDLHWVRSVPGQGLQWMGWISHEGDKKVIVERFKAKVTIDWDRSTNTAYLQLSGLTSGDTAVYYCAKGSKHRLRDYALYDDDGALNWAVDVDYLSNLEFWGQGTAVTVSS VL: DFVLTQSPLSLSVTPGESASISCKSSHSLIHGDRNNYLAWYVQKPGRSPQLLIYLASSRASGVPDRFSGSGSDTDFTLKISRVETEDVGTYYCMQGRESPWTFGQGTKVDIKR
IC80 (neutralization in TZM.bl cells): > 25 µg/mL
